- Tested on: MDA-MB-435 melanoma
- assay_remarks: NCI-60 one-dose screen, 48 h (100 = growth as untreated, 0 = no growth, -100 = all killed)
- condition_info: 10 µM unless noted
The panel holds about 83,000 compounds, 20% with a hit somewhere; the sample as a whole holds those more often.
just bin them by growth: low range (below -10%), mid range (-10% to below 90%), high range (90% or more)

// known answers, use as guide
Query string: Which class holds O=C(CSC1CCc2ccccc21)N/N=C/c1ccccc1O (stereo unspecified) ?
Result string: mid range

Query string: Band for the recorded growth of COC(=O)c1cc2cc(-c3ccc(OC)cc3)cnc2[nH]1 ?
Result string: low range

Query string: Given COc1ccc(N2CCN(Cc3cc(C(=O)/C=C/c4c[nH]c5ccccc45)ccc3O)CC2)cc1 , name the class its growth places it in.
Result string: high range

Query string: The entry to classify is COc1cccc(CC(C)=C(c2ccc(OCCN3CCCCC3)cc2)c2ccc(OCCN3CCCCC3)cc2)c1 ; which class holds it?
Result string: low range

Query string: Lab log: Cc1ccc(-c2nc(C(Cl)Cl)n3nc(-c4ccccc4)cc3n2)cc1 — assign growth category
Result string: mid range

Continuing:
Query string: Place this molecule in its band: COc1cc(C2CC(c3ccc4c(c3)OCO4)=NN2C(C)=O)cc(OC)c1OC (stereo unspecified)
Result string: low range

Query string: # bin label for COC(=O)[C@]12CC[C@@H](C)[C@H](C)[C@@H]1C1=CC[C@@H]3[C@@]4(C)C(C=O)=C[C@@](C)(COC(=O)c5ccco5)[C@@H]4[C@H](O)C[C@@]3(C)[C@]1(C)CC2
Result string: low range

Query string: Form: Item = N#C/C(=C1C=C/C(=N/O)C(Cl)=C/1)c1ccc(Cl)cc1 ; Class = ?
Result string: mid range

Query string: Please let me know in which category the item CCO/C=N/C1=C(C#N)C(c2ccc(Cl)cc2)c2c(c3ccccc3n(C)c2=O)O1 (stereo unspecified) belongs.
Result string: mid range

Query string: // bin(item) where item = S=c1[nH]nc(-c2cc3ccc2CCc2ccc(cc2)CC3)n1C1CC1
Result string: high range

Query string: Note: place this molecule into its band. Item: COc1ccccc1CNCCCN1C(=O)c2ccc3c4c(ccc(c24)C1=O)C(=O)N(CCCNCCCCNCCCN)C3=O
Result string: low range

Query string: Any idea which band O=C(Nc1cccc(-n2cc(-c3ccncc3)c(-c3ccc(Cl)c(O)c3)n2)c1)Nc1ccc(Cl)c(C(F)(F)F)c1 is in?
Result string: low range

Query string: Hi, small favor: classify C=C(C)[C@@H]1C[C@@H]2Cc3ccc(Cl)c(C)c3N1O2 by its growth when you get a moment.
Result string: high range

Query string: Category of O=S(=O)(NCCNc1nccc(-c2c(-c3ccc(O)cc3)nc3sccn23)n1)c1cccc2ccccc12 , please.
Result string: high range

Query string: Determine which band this molecule sits in: O=C(Nc1cccc(-n2cc(-c3ccncc3)c(-c3ccc(Cl)c(O)c3)n2)c1)c1ccccc1
Result string: mid range

Query string: Lab note: sort O=[N+]([O-])c1ccc(C(c2ccccc2)c2ccccc2)cc1 into the matching growth band.
Result string: high range

Query string: Input COc1ccc(C2=CC(c3cc(OC)c(OC)c(OC)c3)NC(=O)N2)cc1OC (stereo unspecified) ; output its category
Result string: mid range

Query string: Hi, small favor: classify COc1ccc(-c2c(N)n[nH]c2-c2cc(OC)c3c(c2)OCCO3)cc1 by its growth when you get a moment.
Result string: low range

Query string: The entry to classify is O=C(NS(=O)(=O)c1ccc2ccccc2c1)n1cc(-c2ccncc2)c(-c2ccc(Cl)c(O)c2)n1 ; which class holds it?
Result string: mid range

* * *

Entries and their growth values follow.
- Tested on: HCT-116 colon
- assay_remarks: NCI-60 one-dose screen, 48 h (100 = growth as untreated, 0 = no growth, -100 = all killed)
- condition_info: 10 µM unless noted
- Description: Growth inhibition of the HCT-116 human tumor cell line is measured as a screen for anti-cancer activity. Cells are grown in 96 well plates and exposed to the test compound for 48 hours. Compounds are tested at a single concentration, which is 10^-5 M for most compounds. The reported endpoint is percent growth (GI% or GIPRCNT), where numbers from 0 - 100% represent growth inhibition, and numbers from -100% - 0 represent cell death. For example, a value of 40 represents 60% growth inhibition. […]
About 83,000 compounds went through this panel and 20% of them were active in at least one assay; those are over-represented in the sample as a whole.
Your answer should be a plain number; it is taken to be in %.

Worked cases, growth given:
The recorded growth for entry COc1cc(/C=C/C(=O)/C=C/c2cc(OC)c3c(c2)OCO3)cc2c1OCO2 equals -93.9

Just so you know, measured growth for CC(C)OC(=O)N1CCOCC1 came out at 102

Value of growth reported for the compound O=C(Oc1ccccc1[N+](=O)[O-])C1CCCN1C(=O)OCc1ccccc1 (configuration not stated) is 87

Consider the record given below.
Field growth (entry C=C[C@@H]1C[C@@H]2Cc3cc(Cl)ccc3N1O2 ) reads 98.2

* * *

- Test system: NCI-H322M lung
- assay_remarks: NCI-60 one-dose screen, 48 h (100 = growth as untreated, 0 = no growth, -100 = all killed)
- condition_info: 10 µM unless noted
The panel holds about 83,000 compounds, 20% with a hit somewhere; the sample as a whole holds those more often.
Below, each entry is listed alongside its reported growth.
Report the value in % with no unit label.

Look over these answered cases.
// growth lookup, compound = Cc1nc2c3c(ncn2n1)Oc1c(c(=O)[nH]c2ccccc12)C3c1ccc(Cl)cc1 (stereo not given) , result: 100

For reference, reported growth for N/C(=N\S(=O)(=O)c1ccccc1)Nc1nc2ccccc2s1 stands at 91.1

For reference, reported growth for Cc1ccc(S(=O)(=O)NCCCNc2cc(-c3cn(C(C)(C)C)nc3-c3cccc(O)c3)ccn2)cc1 stands at 87.9

Record summary for O=S1(=O)CCC(N(/N=C/c2ccco2)c2ccccc2)C1 (stereo not given) : reported growth = 102

compound O=C(Nc1ccncc1)C(=O)c1cn(S(=O)(=O)c2ccccc2F)c2ccccc12 , growth observed: 97.2

Sure, the documented growth for COc1ccc(C2CC(c3ccc(OC)cc3OC)=NN2c2ccc(S(N)(=O)=O)cc2)cc1 (stereo not given) is 94.4

---
Measured growth of C=C[C@@H]1C[C@H](O)Cc2ccccc2N1 : 125

* * *

- Tested on: T-47D breast
- assay_remarks: NCI-60 one-dose screen, 48 h
- condition_info: 10 µM unless noted
The panel holds about 83,000 compounds, 20% with a hit somewhere; the sample as a whole holds those more often. Active and inactive are the calls of the source. Rule for the calls: active = growth percent below 10; inactive = the rest.
A correct response names exactly one class from true (1) = active, false (0) = inactive

Query string: Give the logged outcome of this assay for the following compound: CCOC(=O)c1c(/N=C2\SC(=O)/C(=C\C(=O)OC)N2NC)sc2c1CCN(C(=O)OCC)C2
Result string: false (0)

Further cases:
Query string: Short answer needed: outcome of this test for Brc1cccc(-c2cc(-c3ccc4nccnc4c3)[nH]n2)c1 ?
Result string: false (0)

Query string: Query: recorded result category for S=c1[nH]nc(-c2cc3ccc2CCc2ccc(cc2)CC3)n1C1CC1 in this test
Result string: false (0)

Query string: Hi, do you know how COc1ccc(C(=O)N2NC(=O)/C(=C/c3ccccc3F)N=C2c2ccccc2)cc1 came out in this test?
Result string: false (0)

Query string: Entry COc1ccc2c(c1)OC1=C(C(=O)OC1)C2c1cc(OC)c2c(c1)OCO2 (stereo not drawn) : call = ?
Result string: false (0)

Query string: I would be grateful if you could indicate the recorded call for COc1ccc(-c2c(N)n[nH]c2-c2cc(OC)c3c(c2)OCCO3)cc1 .
Result string: false (0)

Query string: What did the test return for CCC(C)/C(=C\C#N)NCCCN/C(=C/C#N)C(C)CC (stereo not drawn) ?
Result string: false (0)

Query string: Per the assay record, what outcome was assigned to CCCCN(CCCC)C(=N)c1ccnc2ccccc12 ?
Result string: false (0)

* * *

- Test system: NCI-H226 lung
- assay_remarks: NCI-60 one-dose screen, 48 h
- condition_info: 10 µM unless noted
This is part of a sample that, as a whole, favours compounds with a hit. Of some 83,000 tested, about 20% had one in any assay. The source made the active and inactive calls. The calls were made as follows: active = growth percent below 10; inactive = the rest.
The reply should name one outcome from yes (active), no (inactive)

Solved cases below.
Query string: Tell me the recorded outcome of this test for CCO/C=N/C1=C(C#N)C(c2ccc(Cl)cc2)c2c(c3ccccc3n(C)c2=O)O1 (stereo not drawn) .
Result string: no

Query string: Name the outcome recorded for COC(=O)[C@]12CC[C@@H](C)[C@H](C)[C@@H]1C1=CC[C@@H]3[C@@]4(C)C(C=O)=C[C@@](C)(COC(=O)c5ccco5)[C@@H]4[C@H](O)C[C@@]3(C)[C@]1(C)CC2 in the assay.
Result string: yes

Query string: Lab log entry: Cn1cc(-c2cnc3ccc(NC(=O)Nc4ccc(F)c(Br)c4)cc3n2)cn1 — outcome as called in the assay?
Result string: no

Query string: Identify the outcome logged in this assay for the compound shown: S=c1[nH]nc(-c2cc3ccc2CCc2ccc(cc2)CC3)n1C1CC1
Result string: no

Query string: Outcome? COc1ccc(C2C=C(c3ccc(OC)c(OC)c3)N=C3SC=C(C)N32)c(Br)c1 (stereo not drawn)
Result string: no

Next:
Query string: Outcome? CCN1CCN(CC(=O)N2c3cccc4cccc(c34)N(C(=O)CN3CCN(CC)CC3)C2c2cn(-c3ccccc3)nc2-c2cccc([N+](=O)[O-])c2)CC1
Result string: yes

Query string: Check the results log: what was the call for O=C(c1ccccc1)c1c(/C=C/c2ccccc2)c2ccccc2[nH]c1=O ?
Result string: no

Query string: Fill in: this test's call for O=c1[nH]c(-c2ccccc2)nc(CN2CCCCC2)c1O is ___
Result string: no
